The measurements presented in this section are drawn from patent US9868748B2.

assay_target: full-length RORγt in Jurkat cells (Homo sapiens (Human))
Sequence (P51449 other isoform, or with tags, fused parts or gaps): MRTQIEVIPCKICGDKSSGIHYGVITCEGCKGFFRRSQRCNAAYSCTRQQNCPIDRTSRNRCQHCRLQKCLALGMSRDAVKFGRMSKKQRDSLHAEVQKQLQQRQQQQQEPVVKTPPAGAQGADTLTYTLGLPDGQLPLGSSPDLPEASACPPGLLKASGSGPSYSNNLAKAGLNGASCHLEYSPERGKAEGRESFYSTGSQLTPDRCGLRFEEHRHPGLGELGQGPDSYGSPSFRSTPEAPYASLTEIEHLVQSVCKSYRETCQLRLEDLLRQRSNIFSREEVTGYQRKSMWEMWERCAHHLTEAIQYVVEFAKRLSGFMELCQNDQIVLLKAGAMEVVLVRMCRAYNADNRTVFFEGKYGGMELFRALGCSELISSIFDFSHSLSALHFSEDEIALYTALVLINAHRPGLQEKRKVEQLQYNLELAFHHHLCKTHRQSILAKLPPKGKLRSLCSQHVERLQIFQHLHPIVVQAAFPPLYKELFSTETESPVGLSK
test_name: RORγt 5xRORE Assay in Jurkat Cells (Assay 2)
Format: cell-based
particulars: Nanoluc luciferase reporter, 16-18 hrs, Table 9, read-out: RORγt5X IC50 Range*
pIC50: −log10 of the molar value.
Reported pIC50 values for a set of compounds

Qu. Any idea what pIC50 came out for CCS(=O)(=O)c1cnc(CC(=O)Nc2nc3c(s2)CN(Cc2ccc(C#N)cc2)[C@H]3C(C)C)nc1 on full-length RORγt in Jurkat cells (Homo sapiens (Human))?
Ans. 6.00 to 7.00

====

assay_target: recombinant RORγ Ligand Binding Domain (LBD) protein (Homo sapiens (Human))
test_name: Radio-Ligand RORγ Binding Assay (Assay 1)
particulars: competition with 25-hydroxy [26,27-3H]-cholesterol, SPA; Table 9; read-out: RORγ Binding Ki Range*
Procedure: Radio-Ligand RORγ Binding Assay (Assay 1) Compounds of the present invention were tested for ability to bind to RORγ in a cell-free competition assay with commercially available radio-ligand (RL), 25-hydroxy [26,27-^3H]— cholesterol (PerkinElmer, Cat. # NET674250UC), for a ligand binding site on a recombinant RORγ Ligand Binding Domain (LBD) protein expressed as a 6×His-Glutathione-S-Transferase (GST) fusion (“6×His” disclosed as SEQ ID NO: 2). […]
// values below are reported Ki

Below, each entry is followed by its recorded Ki result.
# chemical_string, Ki
rows = [
    ("CC[C@@H]1c2nc(NC(=O)Cc3ccc(S(=O)(=O)CC)cc3)sc2CN1Cc1ccc(F)cn1", "100 to 1000 nM"),
    ("CCS(=O)(=O)c1ccc(CC(=O)Nc2nc3c(s2)CN(Cc2ccc4c(c2)CCO4)[C@H]3C(C)C)cc1", "< 100 nM"),
    ("CC(C)[C@@H]1c2nc(NC(=O)Cc3ccc(S(C)(=O)=O)cc3)sc2CN1Cc1cccc(Br)c1", "< 100 nM"),
    ("CC(C)[C@H]1c2nc(NC(=O)Cc3ccc(C#N)cc3)sc2CN1Cc1ccc(C#N)c(Cl)c1", "< 100 nM"),
    ("CCS(=O)(=O)c1ccc(CC(=O)Nc2nc3c(s2)CN(Cc2ccc(C#N)cc2)[C@@H]3C(C)C)cc1", "100 to 1000 nM"),
    ("CC(C)[C@H]1c2nc(NC(=O)Cc3ccc(Br)cc3)sc2CN1Cc1ccc(Cl)cc1", "100 to 1000 nM"),
]

Qu. Requested field: Ki. Item: CCS(=O)(=O)c1ccc(CC(=O)Nc2nc3c(s2)CN(C[C@H]2CC[C@@H](C(=O)O)CC2)[C@H]3C(C)C)cc1
Ans. 100 to 1000 nM

Qu. Given the entry CC(C)[C@H]1c2nc(NC(=O)Cc3ccc(C(=O)O)cc3)sc2CN1Cc1ccc(Cl)cc1 , report its measured Ki.
Ans. < 100 nM

====

assay_target: recombinant RORγ Ligand Binding Domain (LBD) protein (Homo sapiens (Human), UniProt P51449)
Sequence (P51449 269-508): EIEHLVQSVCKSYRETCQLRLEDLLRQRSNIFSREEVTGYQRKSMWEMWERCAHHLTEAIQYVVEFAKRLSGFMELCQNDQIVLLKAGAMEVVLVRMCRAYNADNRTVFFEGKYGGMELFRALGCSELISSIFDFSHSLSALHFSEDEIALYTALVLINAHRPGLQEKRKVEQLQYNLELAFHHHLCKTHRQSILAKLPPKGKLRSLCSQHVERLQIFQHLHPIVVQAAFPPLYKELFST
test_name: Radio-Ligand RORγ Binding Assay (Assay 1)
particulars: competition with 25-hydroxy [26,27-3H]-cholesterol, SPA; Table 9; read-out: RORγ Binding Ki Range*
pKi: −log10 of the molar value.
measured_metric: pKi

See these solved cases before continuing.
# molecule, meas_value
measured = [
    ("CC[C@@H]1c2nc(NC(=O)Cc3ccc(S(=O)(=O)CC)cc3)sc2CN1Cc1ccc(Cl)cc1", "> 7.00"),
    ("CC(C)[C@H]1c2nc(NC(=O)Cc3ccc(S(C)(=O)=O)cc3)sc2CN1Cc1ccn(C)c(=O)c1", "6.00 to 7.00"),
    ("CCS(=O)(=O)c1ccc(CC(=O)Nc2nc3c(s2)CN(C[C@H]2CC[C@H](OC)CC2)[C@H]3C(C)C)cc1", "> 7.00"),
    ("CCS(=O)(=O)c1ccc(CC(=O)Nc2nc3c(s2)CN(CC2CCS(=O)(=O)CC2)[C@H]3C(C)C)cc1", "> 7.00"),
    ("CCS(=O)(=O)c1ccc(CC(=O)Nc2nc3c(s2)CN(Cc2ccc(C#N)cn2)[C@@]3(C)C(C)C)cc1 [drawing 270]", "> 7.00"),
]

Qu. What value of pKi has been reported for the following molecule? CCS(=O)(=O)c1ccc(CC(=O)Nc2nc3c(s2)C(C)N(Cc2ccc(Cl)cc2)[C@H]3C(C)C)cc1 (some centres unmarked)
Ans. > 7.00

Qu. So what does the record say about pKi for CCS(=O)(=O)c1ccc(CC(=O)Nc2nc3c(s2)CN(Cc2cc(OC(F)(F)F)ccc2F)[C@@H]3C(C)C)cc1 ?
Ans. > 7.00
